Target: HRas^G12V (Homo sapiens (Human), UniProt P01112, G12V)
Assay: 19F T2-CPMG NMR score
Format: binding
valueType: 19F T2-CPMG Score
Reply with just the number.

CN1CCC(NC(=O)Cc2c[nH]c3cc(F)ccc23)C(C(=O)O)C1 (centres unmarked) [Compound 10118]    2.67

Alright, here's another compound for you.
Tell me 19F T2-CPMG Score reported for COC(=O)[C@H]1CN(C)CCN1C(=O)Cc1c[nH]c2cc(F)ccc12 [Compound 10157]
3.58

----------
Target: HRas^G12V (Homo sapiens (Human), UniProt P01112, G12V)
Test: 19F T2-CPMG NMR score
Format: binding
// values below are reported 19F T2-CPMG Score
Reply with just the number.

C[C@H](NC(=O)Cc1c[nH]c2cc(F)ccc12)C(=O)O    1.7
O=C(Cc1c[nH]c2cc(F)ccc12)Nc1ccccc1    38.83
N#CC(C(=O)N[C@@H](Cc1ccc(O)cc1)C(=O)O)c1c[nH]c2cc(F)ccc12 (some centres unmarked)    38.39
CN1CCC[C@@H]1C(=O)NCCc1c[nH]c2cc(F)ccc12    1.61

Alright, here's another compound for you.
Tell me 19F T2-CPMG Score reported for `CCOC(=O)[C@@H]1CN(C(=O)Cc2c[nH]c3cc(F)ccc23)CCO1`
4.84

----------
// values below are reported 19F T2-CPMG Score
Molecular target: HRas^G12V (Homo sapiens (Human), UniProt P01112, G12V)
Assay: 19F T2-CPMG NMR score
Assay type: binding
Reply with just the number.

Reference set (3 entries):
O=C(Cc1c[nH]c2ncc(F)cc12)N1CCC1 [Compound 10035]    −0.11
O=C(Cc1ccc(F)cc1)NCCc1c[nH]c2cc(F)ccc12 [Compound 10012]    3.96
COCC1CN(C(=O)Cc2c[nH]c3cc(F)ccc23)C1 [Compound 10075]    7.09

Tell me 19F T2-CPMG Score reported for CC(=O)N[C@@H]1CCCN(C(=O)Cc2c[nH]c3cc(F)ccc23)C1 [compound 10137]
6.16

Tell me 19F T2-CPMG Score reported for CN(C)CC(=O)Nc1cccc(NC(=O)Cc2c[nH]c3cc(F)ccc23)c1 [compound 10097]
38.49

Tell me 19F T2-CPMG Score reported for CC(=O)N1CCC[C@@H]1C(=O)NCCc1c[nH]c2cc(F)ccc12 [Compound 10044]
0.95

Tell me 19F T2-CPMG Score reported for CCOC(=O)Cc1c[nH]c2cc(F)ccc12 [Compound 11003, ethyl 2-(6-fluoro-1H-indol-3-yl) acetate]
11.18

Tell me 19F T2-CPMG Score reported for O=C1CN(C(=O)Cc2c[nH]c3cc(F)ccc23)CCN1 [Compound 10145]
16.13

----------
Target: HRas^G12V (Homo sapiens (Human), UniProt P01112, G12V)
Experiment: 19F DLB (ligand-observed 19F NMR) score
Type: binding
Set-up: scale not given here
valueType: 19F DLB Score
Reply with just the number.

Reference set (7 entries):
CC(=O)Nc1cccc(C(=O)N2CCC(c3c[nH]c4cc(F)ccc34)C2)c1 (stereo not drawn) [Compound 11023]    3.07
CC(C)(CNC(=O)Cc1c[nH]c2cc(F)ccc12)C(=O)O [Compound 10062]    1.07
O=C(Cc1c[nH]c2cc(F)ccc12)N1CCN(C(=O)C2CCCO2)CC1 (stereo not drawn) [Compound 10170]    1.52
O=C(Cc1c[nH]c2ccccc12)Nc1ccc(F)cc1 [Compound 10067]    1.2
COC(=O)[C@H]1CN(C)CCN1C(=O)Cc1c[nH]c2cc(F)ccc12 [Compound 10157]    1.04
COC(=O)Cc1c[nH]c2cc(F)ccc12 [Compound 11001]    1.76
O=C(NCCc1c[nH]c2cc(F)ccc12)[C@@H]1CCCO1 [Compound 10023]    1.53

Alright, here's another compound for you.
Tell me 19F DLB Score reported for CN(C)CC(=O)Nc1ccccc1NC(=O)Cc1c[nH]c2cc(F)ccc12 [Compound 11014]
1.44

----------
Molecular target: HRas^G12V (Homo sapiens (Human), UniProt P01112, G12V)
Test: Dissociation constant by SPR
Format: binding
valueType: pKd
Here pKd is given on a logarithmic scale as minus log10 of the concentration in mol/L.

Tell me pKd reported for `CN(C)CC(=O)Nc1cccc(NC(=O)Cc2c[nH]c3cc(F)ccc23)c1`
4.51

----------
Biological target: HRas^G12V (Homo sapiens (Human), UniProt P01112, G12V)
Test: 19F T2-CPMG NMR score
Format: binding
Classification field: met = 19F T2-CPMG Score at or over 2; not met = 19F T2-CPMG Score under 2.

CC1CN(C(=O)Cc2cc(F)cc3[nH]ccc23)C1 [Compound 10172]    not met
O=C(O)[C@@H]1CCCCN1C(=O)Cc1c[nH]c2cc(F)ccc12 [Compound 10123]    met
CCOC(=O)C(CC(N)=O)NC(=O)Cc1c[nH]c2cc(F)ccc12 (centres unmarked) [Compound 10101]    not met

Evaluate CCOC(=O)C(CO)NC(=O)Cc1c[nH]c2cc(F)ccc12 (centres unmarked) [Compound 10105] : 19F T2-CPMG Score at minimum 2?
met

Evaluate COC[C@@H]1CN(C(=O)Cc2c[nH]c3cc(F)ccc23)CCO1 [compound 10155] : 19F T2-CPMG Score at minimum 2?
met

----------
Target: HRas^G12V (Homo sapiens (Human), UniProt P01112, G12V)
Experiment: Overall binding/activity in the various assays (NMR consensus binding)
valueType: Activity ranking on HRas^G12V (in words)

Reference set (5 entries):
O=C(Cc1c[nH]c2cc(F)ccc12)N1CCC(O)CC1    More active
CN(C)Cc1[nH]c2cc(F)ccc2c1C(CC(=O)O)c1ccccc1F (centres unmarked)    More active
O=C(O)C[C@H](c1ccccc1F)c1c[nH]c2cc(F)ccc12 (single isomer, unassigned)    More active
O=C(CN1CCCCC1)c1c[nH]c2cc(F)ccc12    More active
CN(C)C[C@@H]1CN(C(=O)Cc2c[nH]c3cc(F)ccc23)CCO1    More active

Tell me Activity ranking on HRas^G12V (in words) reported for O=C(O)CC(c1cccc(O)c1)c1c[nH]c2cc(F)ccc12 (centres unmarked)
More active

Tell me Activity ranking on HRas^G12V (in words) reported for `CC(=O)N1CCN(C(=O)Cc2c[nH]c3cc(F)ccc23)CC1`
More active

Tell me Activity ranking on HRas^G12V (in words) reported for O=C(O)CC(c1ccc(O)cc1)c1c[nH]c2cc(F)ccc12 (centres unmarked)
More active

Tell me Activity ranking on HRas^G12V (in words) reported for `CC(C)N1CCC(NC(=O)Cc2c[nH]c3cc(F)ccc23)CC1`
More active

Tell me Activity ranking on HRas^G12V (in words) reported for CC(C(=O)N1CCC1)c1c[nH]c2cc(F)ccc12 (centres unmarked)
More active

Tell me Activity ranking on HRas^G12V (in words) reported for `CC(=O)Nc1cccc(NC(=O)Cc2c[nH]c3cc(F)ccc23)c1`
More active

Tell me Activity ranking on HRas^G12V (in words) reported for `O=C(Cc1c[nH]c2ncc(F)cc12)N1CCC1`
More active

Tell me Activity ranking on HRas^G12V (in words) reported for `O=C(Cc1c[nH]c2cc(F)ccc12)N1CCCCC1`
More active

Tell me Activity ranking on HRas^G12V (in words) reported for O=C(O)CC(c1ccccc1F)c1c[nH]c2cc(F)ccc12 (centres unmarked)
More active

----------
Molecular target: GDP-HRas^G12V (Homo sapiens (Human), UniProt P01112, G12V)
Test: Dissociation constant by microscale thermophoresis (MST)
Procedure: MST experiments were performed with a Monolith NT.115 Pico (NanoTemper Technologies, Munich, Germany). […] Data was acquired in PBS buffer with 0.1% pluronic acid. Data was analyzed with the NanoTemper MO.Affinity Analysis software.
valueType: Kd

Reference set (2 entries):
CN(C)CC(=O)Nc1cccc(NC(=O)Cc2c[nH]c3cc(F)ccc23)c1    65 to 82.9 µM
O=C(Cc1c[nH]c2cc(F)ccc12)N1CCC(O)CC1    1810 to 2080 µM

Alright, here's another compound for you.
Provide Kd, tested on GDP-HRas^G12V (Homo sapiens (Human), UniProt P01112, G12V), for `CN(C)CCOc1cccc(NC(=O)Cc2c[nH]c3cc(F)ccc23)c1` .
19.1 to 23.5 µM

----------
// values below are reported 19F T2-CPMG Score
Target: HRas^G12V (Homo sapiens (Human), UniProt P01112, G12V)
Assay: 19F T2-CPMG NMR score
Assay type: binding
Reply with just the number.

Reference set (3 entries):
COC[C@H]1CN(C(=O)Cc2c[nH]c3cc(F)ccc23)CCO1    8.16
O=C1CC(c2c[nH]c3cc(F)ccc23)C(=O)N1 (stereo not drawn)    24.24
CN1CCN(C(=O)Cc2c[nH]c3cc(F)ccc23)C[C@@H]1C(=O)O [Compound 10166]    7.19

Provide 19F T2-CPMG Score, tested on HRas^G12V (Homo sapiens (Human), UniProt P01112, G12V), for `O=C(O)CC1CCN(C(=O)Cc2c[nH]c3cc(F)ccc23)CC1` .
4.35

Provide 19F T2-CPMG Score, tested on HRas^G12V (Homo sapiens (Human), UniProt P01112, G12V), for `O=C(Cc1c[nH]c2cc(F)ccc12)N1C[C@H]2CC[C@@H](C1)O2` .
9.62

Provide 19F T2-CPMG Score, tested on HRas^G12V (Homo sapiens (Human), UniProt P01112, G12V), for `O=C(O)C1CCN(C(=O)Cc2c[nH]c3cc(F)ccc23)CC1` .
3.92

Provide 19F T2-CPMG Score, tested on HRas^G12V (Homo sapiens (Human), UniProt P01112, G12V), for `CCOC(=O)[C@H]1COCCN1C(=O)Cc1c[nH]c2cc(F)ccc12` .
5.23

Provide 19F T2-CPMG Score, tested on HRas^G12V (Homo sapiens (Human), UniProt P01112, G12V), for CC(C(=O)N1CCC1)c1c[nH]c2cc(F)ccc12 (stereo not drawn) .
21.34

Provide 19F T2-CPMG Score, tested on HRas^G12V (Homo sapiens (Human), UniProt P01112, G12V), for O=C(O)C1CCN1C(=O)Cc1c[nH]c2cc(F)ccc12 (stereo not drawn) .
2.65
